Assay name: Vero-766 cells viability qHTS against the NCATS CANVASS Library: Counterscreen for Zika virus inhibition assay (AID 1347394); note: nearly all actives have a fitted effect of over 60% in size
Protocol conditions: Vero 766 viability, CellTiter-Glo luminescence, 72 h; series mostly up to 46.1 µM
Records with an inconclusive call do not appear. The source made the active and inactive calls. Calls come from the whole dose curve; as a rule, active = well fitted cell-killing curve with a large enough effect; inconclusive = small, poorly fitted or top-dose-only effect; inactive = flat fitted curve, though single readings scatter. Square brackets hold non-standard residues; d marks the D form. Peptide text beside a SMILES is read from it. * marks the point of attachment. ξ: configuration not given here. Hexanoyl = CCCCCC(=O)*; ξL = CC(C)CC(N)C(=O)O
Possible outcomes: TRUE (active), FALSE (inactive)

>>> cat("CC(=O)c1c(C)cc2c(c1O)C(=O)c1c(O)cc(O)cc1C2=O")
"FALSE"
>>> cat("C=C1[C@@]2(C)CC3C4(C)CCC(O)C(C)(C)C4CCC3(C)[C@]1(C(=O)OC)C(=O)C(C)(O)C2=O (stereo partly specified)")
"FALSE"
>>> cat("CN1CC[C@]23c4ccccc4N[C@H]1[C@]21CCN(C)[C@H]3Nc2ccccc21")
"FALSE"
>>> cat("COc1cc(/C=C/C(=O)OC[C@@H](Cc2ccc(O)c(OC)c2)[C@@H](COC(=O)/C=C/c2ccc(O)c(OC)c2)Cc2ccc(O)c(OC)c2)ccc1O")
"TRUE"
>>> cat("CO/C=C/C(=O)c1cc2cnc3c(N)cc(=NC(=O)C(C)C)c([nH]1)c23")
"TRUE"
>>> cat("CCCCCC(=O)N[C@@H](CC(C)C)C(=O)N[C@H](C=O)CCC(=O)O (Hexanoyl-Leu-Glu-aldehyde)")
"FALSE"
>>> cat("COc1cc(C2C3=C(Cc4cc5c(cc42)OCO5)C(=O)OC3)cc(OC)c1OC (stereo unspecified)")
"TRUE"
>>> cat("COc1cc2c(cc1OC)[C@@H](c1ccc3c(c1)OCO3)C(C)[C@@H](C)C2=O (stereo partly specified)")
"FALSE"
>>> cat("COc1ccc([C@@H]2c3cc4c(cc3C(=O)C(C)C2C)OCO4)cc1OC (stereo partly specified)")
"FALSE"
>>> cat("CN1CCc2cc3c(c4c2C1(C)C(=O)c1cc(O)ccc1-4)OCO3 (stereo unspecified)")
"FALSE"
>>> cat("COC(=O)c1cc2cc3c(c(O)c2c(=O)o1)OC1(CC3)CC2=C(O1)C(=O)c1c(O)c(OC)cc(OC)c1C2=O (stereo unspecified)")
"TRUE"
>>> cat("C/C=C/C(=O)C1(O)CC2CC(C(=O)O)CC(C)C2C1C1=C2C(=O)NC(=O)C2=C(CCCCC)C(C)O1 (stereo unspecified)")
"FALSE"
>>> cat("C/C1=C/[C@@H](C)[C@H](O)[C@@H](O)/C=C/CC/C=C/C(=O)O[C@@H]1[C@H](C)C(=O)/C=C/CC1CC(=O)NC(=O)C1")
"FALSE"
>>> cat("CC[C@@H](C)[C@H]1NC(=O)C(CC(C)C)NC(=O)[C@@H](CC(C)C)NC(=O)[C@H](Cc2c[nH]c3ccccc23)NC(=O)CNC(=O)[C@@H](CC(N)=O)NC1=O (stereo partly drawn) (cyclo(GW[dL][ξL][dI][dN]))")
"FALSE"
>>> cat("COC12OC1(C13OC1(OC)C(=O)c1cc4cc(C)oc(=O)c4c(O)c1C3O)C(O)c1c(cc3cc(C)oc(=O)c3c1O)C2=O (stereo unspecified)")
"TRUE"
>>> cat("C=C1CCC2C(C)(C(=O)O)CCC(CC/C(C)=C/C(=O)NC(CCC(N)=O)C(=O)O)[C@@]2(C)C1 (stereo partly specified)")
"FALSE"
